Source of measurements: paper PMC11651181

experiment: In vivo BBB-penetration studies (LC-MS/MS of brain and plasma); parameters: species or system mouse; settings: Swiss Webster, mouse, brain, subcutaneous; 10 mg/kg s.c., 10 min, n = 3, mean ± SD; read-out: Brain concentration
result.type: concentration at 10 min (ng/g)
The reply should be a number in ng/g, with the unit left off.

Fill blank: measured concentration at 10 min of the compound O=C(N[C@H]1CC[C@@]2(O)[C@H]3Cc4ccc(O)c5c4[C@@]2(CCN3CC2CC2)[C@H]1O5)c1nccs1 [Compound 6] is ____.
235

###

For each of the molecules below, state its pKi.
Please keep in mind that pKi is minus log10 of the molar concentration; only the number is needed.

What pKi appears in the records for this molecule with κ opioid receptor (KOR) (Mus musculus, UniProt P33534)? O=C(CCc1nccs1)N[C@H]1CC[C@@]2(O)[C@H]3Cc4ccc(O)c5c4[C@@]2(CCN3CC2CC2)[C@H]1O5 [Compound 8]
8.70

API: value(readout= pKi, system= κ opioid receptor (KOR) (Mus musculus, UniProt P33534), query= O=C(N[C@H]1CC[C@@]2(O)[C@H]3Cc4ccc(O)c5c4[C@@]2(CCN3CC2CC2)[C@H]1O5)c1nccs1 [Compound 6] )
8.89

Form field: pKi recorded for O=C(N[C@@H]1CC[C@@]2(O)[C@H]3Cc4ccc(O)c5c4[C@@]2(CCN3CC2CC2)[C@H]1O5)c1nccs1 [Compound 14] with κ opioid receptor (KOR) (Mus musculus, UniProt P33534) (enter value)
9.12

Lab note: need pKi with κ opioid receptor (KOR) (Mus musculus, UniProt P33534) for entry O=C(CCc1nccs1)N[C@@H]1CC[C@@]2(O)[C@H]3Cc4ccc(O)c5c4[C@@]2(CCN3CC2CC2)[C@H]1O5 [Compound 16] , please look it up.
9.17

What measured pKi is associated with O=C(Cc1cncs1)N[C@@H]1CC[C@@]2(O)[C@H]3Cc4ccc(O)c5c4[C@@]2(CCN3CC2CC2)[C@H]1O5 [Compound 12] on κ opioid receptor (KOR) (Mus musculus, UniProt P33534)?
9.05

Form entry - test system: κ opioid receptor (KOR) (Mus musculus, UniProt P33534); read-out: pKi; molecule: O=C(N[C@H]1CC[C@@]2(O)[C@H]3Cc4ccc(O)c5c4[C@@]2(CCN3CC2CC2)[C@H]1O5)c1ccns1 [Compound 1]
8.74

Please tell me: pKi of O=C(N[C@@H]1CC[C@@]2(O)[C@H]3Cc4ccc(O)c5c4[C@@]2(CCN3CC2CC2)[C@H]1O5)c1cncs1 [Compound 11] , system κ opioid receptor (KOR) (Mus musculus, UniProt P33534)?
8.85
